Hello, the source for this data is patent EP1541198A1, in case you need it.

target: human DHODH (Homo sapiens); construct: Prof; M. Löffler, Marburg, Germany (gift, not a commercial vendor); test: Inhibition Assay of DHODH activity; settings: recombinant human DHODH; 50 mM TrisHCl, pH 8,0, 30°C; decrease in absorption at 600 nm
Sequence (Q02127 whole entry): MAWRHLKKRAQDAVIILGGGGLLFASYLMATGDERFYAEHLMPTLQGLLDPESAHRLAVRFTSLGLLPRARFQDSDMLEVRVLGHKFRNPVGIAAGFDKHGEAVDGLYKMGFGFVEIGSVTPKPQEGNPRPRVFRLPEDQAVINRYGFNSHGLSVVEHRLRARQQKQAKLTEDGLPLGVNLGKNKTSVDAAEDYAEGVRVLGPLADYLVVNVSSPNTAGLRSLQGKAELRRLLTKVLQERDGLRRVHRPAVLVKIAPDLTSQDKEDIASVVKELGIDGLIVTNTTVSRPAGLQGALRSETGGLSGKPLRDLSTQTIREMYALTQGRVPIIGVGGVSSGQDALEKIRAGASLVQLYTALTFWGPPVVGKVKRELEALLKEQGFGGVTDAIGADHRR
Property Name: IC50

1) O=C(O)C1CCCC1C(=O)Nc1c(F)cc(-c2ccccc2Cl)cc1F (stereo not drawn)    < 5 µM
2) COc1cccc(-c2ccc(NC(=O)[C@@H]3CCC[C@H]3C(=O)O)c(F)c2)c1 (relative stereo)    5 to 20 µM
3) O=C(O)C1CCCC1C(=O)Nc1ccc(-c2ccccc2)cc1 (stereo not drawn)    < 5 µM
4) CCOc1ccccc1-c1cc(F)c(NC(=O)C2CCCC2C(=O)O)c(F)c1 (stereo not drawn)    5 to 20 µM
5) O=C(O)C1CCCC1C(=O)Nc1c(F)cc(-c2cccc(OC(F)(F)F)c2)cc1F (stereo not drawn)    < 5 µM

Batch lookup, IC50 per entry.
1. COc1ccc(-c2cc(F)c(NC(=O)C3CCCC3C(=O)O)c(F)c2)c(OC)c1 (stereo not drawn)
2. O=C(O)C1CCCC1C(=O)Nc1c(F)c(F)c(-c2cccc(OC(F)(F)F)c2)c(F)c1F (stereo not drawn)
3. COc1cccc(-c2ccc(NC(=O)[C@H]3CCC[C@H]3C(=O)O)c(F)c2)c1 (relative stereo)
4. CCOc1cccc(-c2cc(F)c(NC(=O)C3CCCC3C(=O)O)c(F)c2)c1 (stereo not drawn)

5 to 20 µM
< 5 µM
< 5 µM
< 5 µM
